log10(IC50) for assorted compounds
measured.target: KLK6 (Homo sapiens)
protocol.details: Biochemical inhibition assay, fluorogenic substrate FSR-AMC
test.parameters: read-out: KLK6 IC50; KLK6 5 nM (produced in insect cells); 30 min incubation with inhibitor; FSR-AMC 20 µM; Tris pH 7.5
Form field - Quantity: IC50; Unit: µM; Scale: log10

> print(dat)
                                   compound  observed.result
1  C=CCOc1ccccc1NC(=O)COC(=O)Cc1ccccc1I [compound 65]             1.59
2  Cc1nn(-c2ccccc2)c(C)c1NC(=O)COC(=O)Cc1cccc(F)c1 [compound 64]             1.34
3  Cc1nn(-c2ccccc2)c(C)c1NC(=O)COC(=O)Cc1cccs1 [compound 59]             0.80
4  Cc1nn(-c2ccccc2)c(C)c1NC(=O)COC(=O)Cn1ccc2cccc(Cl)c21 [compound 31]             0.08
5  Cc1nn(-c2ccccc2)c(C)c1NC(=O)COC(=O)Cc1ccc(Cl)s1 [compound 60]             1.51
6  Cc1nn(-c2ccccc2)c(C)c1NC(=O)COC(=O)Cc1cccc(N)c1 [compound 55]             1.23
7  Cc1nn(-c2ccc([N+](=O)[O-])cc2)c(C)c1NC(=O)COC(=O)Cn1c(C(F)(F)F)cc2ccccc21 [compound 21]             2.05
8  Cc1nn(-c2ccccc2)c(C)c1NC(=O)COC(=O)Cn1c(C(C)C)cc2ccccc21 [compound 32]             0.53

Quick note, log10(IC50) for Cc1nn(-c2ccccc2)c(C)c1NC(=O)COC(=O)Cn1c(C(F)(F)F)cc2ccccc21 [compound 16] landed at -0.80

Quick note, log10(IC50) for Cc1nn(-c2ccccc2)c(C)c1NC(=O)COC(=O)Cn1c(C)c(C)c2ccccc21 [compound 15] landed at 0.67

Quick note, log10(IC50) for Cc1[nH]c2ccccc2c1CC(=O)OCC(=O)Nc1ccc(F)cn1 [compound 72] landed at 1.09

Quick note, log10(IC50) for Cc1nn(-c2ccccc2)c(C)c1NC(=O)C(C)OC(=O)Cn1c(C)cc2ccccc21 (racemic) [compound 37] landed at 0.17

Quick note, log10(IC50) for Cc1nn(-c2ccccc2)c(C)c1NC(=O)COC(=O)Cn1c(C)cc2cccc(Cl)c21 [compound 33] landed at 0.81

Quick note, log10(IC50) for Cc1nn(-c2ccccc2)c(C)c1NC(=O)COC(=O)Cc1ccccc1Cl [compound 45] landed at 0.13

---

measured.target: Factor Xa (Homo sapiens)
Sequence (P00742 235-488 limits assumed): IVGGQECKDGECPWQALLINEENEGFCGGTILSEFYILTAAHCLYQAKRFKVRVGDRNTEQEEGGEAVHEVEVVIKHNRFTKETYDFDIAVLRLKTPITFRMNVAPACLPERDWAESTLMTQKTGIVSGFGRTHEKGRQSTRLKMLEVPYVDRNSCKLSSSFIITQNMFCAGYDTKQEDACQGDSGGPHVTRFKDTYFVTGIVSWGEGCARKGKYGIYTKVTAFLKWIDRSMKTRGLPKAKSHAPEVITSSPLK
Sequence (P00742 41-179 partner limits assumed): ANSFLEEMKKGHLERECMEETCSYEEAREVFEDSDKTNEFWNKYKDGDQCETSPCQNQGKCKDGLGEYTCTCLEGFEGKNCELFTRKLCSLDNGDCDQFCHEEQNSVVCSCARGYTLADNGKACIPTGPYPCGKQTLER
protocol.details: Biochemical inhibition assay, fluorogenic substrate FSR-AMC
test.parameters: read-out: Factor Xa IC50; Factor Xa 4 nM; 30 min incubation with inhibitor; FSR-AMC 20 µM; Tris pH 7.5
pIC50: −log10 of the molar value.
measured.attribute: pIC50

For orientation, consider the following solved cases.
> print(dat)
                                   compound           measured.target  measured.attribute  observed.result
1  Cc1nn(-c2ccccc2)c(C)c1NC(=O)COC(=O)Cc1ccccc1OCc1ccccc1  Factor Xa (Homo sapiens)               pIC50           < 3.70
2  Cc1ccccc1NC(=O)COC(=O)Cc1c(C)[nH]c2ccccc12  Factor Xa (Homo sapiens)               pIC50           < 3.70
3  Cc1nn(-c2ccccc2)c(C)c1NC(=O)COC(=O)Cc1cn(C)c2ccccc12  Factor Xa (Homo sapiens)               pIC50             4.30
4  Cc1nn(-c2ccccc2)c(C)c1NC(=O)COC(=O)Cn1c(C)cc2cc(Cl)ccc21  Factor Xa (Homo sapiens)               pIC50           < 4.30

I looked up "C=CCOc1ccccc1NC(=O)COC(=O)Cc1ccccc1I" and its pIC50 for Factor Xa (Homo sapiens) was < 3.70

I looked up "Cc1nn(-c2ccccc2)c(C)c1NC(=O)COC(=O)Cn1c(C)c(C)c2ccccc21" and its pIC50 for Factor Xa (Homo sapiens) was < 3.70

I looked up "Cc1[nH]c2ccccc2c1CC(=O)OCC(=O)Nc1cccc(C(N)=O)c1" and its pIC50 for Factor Xa (Homo sapiens) was 4.17

---

measured.target: Thrombin (Homo sapiens)
protocol.details: Biochemical inhibition assay, fluorogenic substrate FSR-AMC
test.parameters: read-out: Thrombin IC50; Thrombin 9.8·10^-5 NIH unit/mL; 30 min incubation with inhibitor; FSR-AMC 20 µM; Tris pH 7.5
measured.attribute: IC50

For orientation, consider the following solved cases.
> print(dat)
                                   molecule  observed.result
1  Cc1nn(-c2ccccc2)c(C)c1NC(=O)COC(=O)Cc1ccc(N)cc1 [compound 44]          > 50 µM
2  Cc1nn(-c2ccccc2)c(C)c1NC(=O)COC(=O)Cc1cccc(C#N)c1 [compound 56]         > 200 µM
3  Cc1nn(-c2ccccc2)c(C)c1NC(=O)COC(=O)Cc1c(C)[nH]c2ccccc12 [compound 38]          > 50 µM
4  Cc1cccc(NC(=O)COC(=O)Cc2c(C)[nH]c3ccccc23)c1 [compound 75]         > 200 µM
5  Cc1nn(-c2ccccc2)c(C)c1NC(=O)COC(=O)CCc1c(C)[nH]c2ccccc12 [compound 87]         > 200 µM
6  Cc1[nH]c2ccccc2c1CC(=O)OCC(=O)NCc1ncc[nH]1 [compound 85]         > 200 µM
7  Cc1[nH]c2ccccc2c1CC(=O)OCC(=O)Nc1cccc(C(N)=O)c1 [compound 84]          90.6 µM
8  CCc1cc2ccccc2n1CC(=O)OCC(=O)Nc1c(C)nn(-c2ccccc2)c1C [compound 36]          > 50 µM

Quick note, IC50 for Cc1nn(-c2ccccc2)c(C)c1NC(=O)COC(=O)Cn1ccc2cc(Cl)ccc21 [compound 28] landed at > 50 µM

Quick note, IC50 for Cc1nn(-c2ccccc2)c(C)c1NC(=O)COC(=O)Cn1c(C)cc2cc(Cl)ccc21 [compound 30] landed at > 50 µM

Quick note, IC50 for Cc1nn(-c2ccccc2)c(C)c1NC(=O)COC(=O)Cc1ccccn1 [compound 58] landed at > 200 µM

Quick note, IC50 for Cc1nn(-c2ccccc2)c(C)c1NC(=O)COC(=O)Cn1c(C)cc2cccc(Cl)c21 [compound 33] landed at > 50 µM

Quick note, IC50 for Cc1nn(-c2ccccc2)c(C)c1NC(=O)C1(OC(=O)Cn2c(C)cc3ccccc32)CC1 [compound 40] landed at > 50 µM

---

IC50 for assorted compounds
measured.target: Thrombin (Homo sapiens, UniProt P00734)
protocol.details: Biochemical inhibition assay, fluorogenic substrate FSR-AMC

For orientation, consider the following solved cases.
> print(dat)
                      smiles.representation  observed.result
1  Cc1nn(-c2ccccc2[N+](=O)[O-])c(C)c1NC(=O)COC(=O)Cn1c(C)cc2ccccc21         > 200 µM
2  Cc1nn(-c2ccccc2)c(C)c1NC(=O)COC(=O)Cn1cc(C)c2ccccc21         > 200 µM
3  Cc1ccc(-n2nc(C)c(NC(=O)COC(=O)Cn3c(C)cc4ccccc43)c2C)cc1           197 µM

Quick note, IC50 for "Cc1ccc(-n2nc(C)c(NC(=O)COC(=O)Cc3c[nH]c4ccccc34)c2C)cc1" landed at > 200 µM

---

measured.target: Trypsin (Homo sapiens, UniProt P07477)
protocol.details: Biochemical inhibition assay, fluorogenic substrate FSR-AMC
test.parameters: read-out: Trypsin IC50; Trypsin 0.88 ng/mL; 30 min incubation with inhibitor; FSR-AMC 20 µM; Tris pH 7.5
measured.attribute: IC50

> print(dat)
                                   compound  observed.result
1  Cc1ccccc1NC(=O)COC(=O)Cc1c(C)[nH]c2ccccc12 [compound 78]         > 200 µM
2  Cc1nn(-c2ccccc2)c(C)c1NC(=O)COC(=O)Cc1ccc(C#N)cc1 [compound 46]          > 50 µM
3  Cc1nn(-c2ccccc2)c(C)c1NC(=O)COC(=O)Cc1cn(C)c2ccccc12 [compound 18]           149 µM
4  Cc1[nH]c2ccccc2c1CC(=O)OCC(=O)NC1CCCC1 [compound 71]         > 200 µM

Quick note, IC50 for Cc1nn(-c2ccc(N)cc2)c(C)c1NC(=O)COC(=O)Cn1c(C)cc2ccccc21 [compound 22] landed at 105 µM

Quick note, IC50 for Cc1nn(-c2ccccc2)c(C)c1NC(=O)COC(=O)Cn1c(C)c(C)c2ccccc21 [compound 15] landed at 144 µM

Quick note, IC50 for Cc1ccccc1NC(=O)COC(=O)Cn1c(C)cc2ccccc21 [compound 26] landed at > 50 µM

Quick note, IC50 for Cc1nn(-c2ccccc2)c(C)c1NC(=O)COC(=O)Cn1c(C)cc2cc(Cl)ccc21 [compound 30] landed at > 50 µM

Quick note, IC50 for Cc1nn(-c2ccccc2)c(C)c1NC(=O)COC(=O)CCc1c(C)[nH]c2ccccc12 [compound 87] landed at > 200 µM

Quick note, IC50 for Cc1nn(-c2ccccc2)c(C)c1NC(=O)COC(=O)Cc1ccccc1Br [compound 48] landed at > 200 µM

Quick note, IC50 for Cc1cc2ccccc2n1CC(=O)OCC(=O)Nc1ccc(N2CCOCC2)cc1 [compound 35] landed at > 50 µM
